// data source = patent US20260224537A1

- ASSAY COMMENT: Prior clinical trials of SPI-62 (without glucocorticoids)
- ASSAY SETUP: human, in vivo; based on data collected up to 2-2.5 weeks after cessation of SPI-62 administration in prior clinical trials; read-out: pharmacological half-life
QUANTITY: half-life

Given Cn1c(-c2ccc(C(N)=O)cc2F)nnc1C(C)(C)Oc1c(F)cc(Cl)cc1F , state its recorded half-life.
28 to 42 days
